Parameter % Ki67 % mean: see the listing below.
Test system: MCF7 LTLT primary tumors
Experiment: Ki67 proliferation index by immunohistochemistry on fixed mammary glands, MCF7 LTLT MIND model
Assay type: in vivo, NSG mice
Conditions: MCF7 LTLT primary tumors, IHC at sacrifice after 90-93 days of treatment, manual counting; Let− cohort, and Let+ cohort where label includes letrozole
Protocol: After cell injection, mice were separated into 2 equal groups; one group received 10 μg/day of letrozole in 15% PEG400 in PBS via subcutaneous injection, “LTLT-Let”; the other group wasn't administered letrozole (“LTLT”). […] H&E and IHC slides were scanned on a Nikon eclipse Ti2 microscope with a 10× objective for high resolution images. Ki67 score was determined using standardized manual counting. […]
property name: % Ki67 % mean

compound | obs value
Oc1ccc2c(c1)CC[C@H](c1ccccc1)[C@@H]2c1ccc(OCCN2CCCC2)cc1 [lasofoxifene] | 46.0%
C[C@]12CC[C@@H]3c4ccc(O)cc4C[C@@H](CCCCCCCCC[S+]([O-])CCCC(F)(F)C(F)(F)F)[C@H]3[C@@H]1CC[C@@H]2O (stereo partly shown) [fulvestrant (ICI), fulvestrant] | 56.8%
CC(=O)c1c(C)c2cnc(Nc3ccc(N4CCNCC4)cn3)nc2n(C2CCCC2)c1=O [palbociclib] | 51.7%
N#Cc1ccc(C(c2ccc(C#N)cc2)n2cncn2)cc1 [letrozole] | 39.5%
